Recorded pIC50, one value per entry.
Target: UniProtKB P05177
Sequence (P05177 whole entry): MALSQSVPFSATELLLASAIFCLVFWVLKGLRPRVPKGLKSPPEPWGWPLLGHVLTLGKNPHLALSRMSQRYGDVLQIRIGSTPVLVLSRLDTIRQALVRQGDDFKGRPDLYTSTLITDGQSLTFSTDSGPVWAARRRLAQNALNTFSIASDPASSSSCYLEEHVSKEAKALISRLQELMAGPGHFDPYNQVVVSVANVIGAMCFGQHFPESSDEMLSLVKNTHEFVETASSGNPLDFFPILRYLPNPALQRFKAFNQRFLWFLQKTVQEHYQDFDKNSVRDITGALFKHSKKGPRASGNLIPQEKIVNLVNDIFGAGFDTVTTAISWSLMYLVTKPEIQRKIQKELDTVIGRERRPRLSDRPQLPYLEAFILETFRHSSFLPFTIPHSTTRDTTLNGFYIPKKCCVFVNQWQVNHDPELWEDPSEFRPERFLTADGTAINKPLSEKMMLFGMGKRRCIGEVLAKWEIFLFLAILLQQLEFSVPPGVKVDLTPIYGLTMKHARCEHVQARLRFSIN
Experiment: Inhibition of human CYP1A2 expressed in HEK293 cells using fluorogenic 3-cyano-7-ethoxycoumarin as substrate preincubated for 30 mins followed by substrate addition measured for 60 mins by fluorescence assay
Assay type: cell-based
In simple prose, pIC50 is minus the logarithm base ten of a concentration in moles per litre.

Structure string | pIC50
COc1ccccc1/C=C/C(=O)c1ccc[nH]1 | 5.96

What value of pIC50 has been reported for the following molecule? O=C(/C=C/c1ccccc1Cl)c1ccc[nH]1
6.05

* * *

Molecular target: Cytochrome P450 1B1 (Homo sapiens)
Experiment: Inhibition of human CYP1B1 expressed in HEK293 cells using fluorogenic 7-ethoxyresorufin as substrate preincubated for 30 mins followed by substrate addition measured for 60 mins by fluorescence assay
Format: cell-based
Readout: pIC50
In simple prose, pIC50 is minus the logarithm base ten of a concentration in moles per litre.

Structure string | Readout | Data value
O=C(/C=C/c1ccccc1Cl)c1ccc[nH]1 | pIC50 | 6.60

Next molecule, pIC50 to be filled in.
What value of pIC50 has been reported for the following molecule? COc1ccccc1/C=C/C(=O)c1ccc[nH]1
5.92

* * *

Recorded IC50, one value per entry.
Target: Cytochrome P450 3A4 (Homo sapiens)
Sequence (P08684 whole entry): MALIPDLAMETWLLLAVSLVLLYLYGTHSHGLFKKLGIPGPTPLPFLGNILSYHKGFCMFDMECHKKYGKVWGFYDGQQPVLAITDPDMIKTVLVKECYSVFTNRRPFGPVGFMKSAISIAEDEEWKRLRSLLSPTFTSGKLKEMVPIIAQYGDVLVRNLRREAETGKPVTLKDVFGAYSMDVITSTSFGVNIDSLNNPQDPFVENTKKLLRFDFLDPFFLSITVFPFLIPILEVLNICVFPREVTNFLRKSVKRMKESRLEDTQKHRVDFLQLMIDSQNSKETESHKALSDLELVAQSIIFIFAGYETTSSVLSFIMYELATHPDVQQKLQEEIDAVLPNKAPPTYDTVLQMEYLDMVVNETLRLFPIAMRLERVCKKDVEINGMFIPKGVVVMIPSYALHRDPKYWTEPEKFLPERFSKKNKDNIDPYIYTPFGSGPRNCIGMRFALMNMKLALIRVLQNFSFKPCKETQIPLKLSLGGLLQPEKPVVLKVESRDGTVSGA
Experiment: Inhibition of human CYP3A4 expressed in HEK293 cells using fluorogenic dibenzylfluorescein as substrate preincubated for 30 mins followed by substrate addition measured for 60 mins by fluorescence assay
Format: ADME, cell-based

Answered examples (2):
Structure string | System under test | IC50
O=C(/C=C/c1ccc(OC(F)(F)F)cc1)c1ccc[nH]1 | Cytochrome P450 3A4 (Homo sapiens) | > 20 µM
O=C(/C=C/c1ccccc1Cl)c1ccc[nH]1 | Cytochrome P450 3A4 (Homo sapiens) | > 10 µM

Next compound, IC50 to be filled in.
What value of IC50 has been reported for the following compound? COc1ccccc1/C=C/C(=O)c1ccc[nH]1
> 10 µM

* * *

Biological target: Cytochrome P450 1A1 (Homo sapiens)
Sequence (P04798 whole entry): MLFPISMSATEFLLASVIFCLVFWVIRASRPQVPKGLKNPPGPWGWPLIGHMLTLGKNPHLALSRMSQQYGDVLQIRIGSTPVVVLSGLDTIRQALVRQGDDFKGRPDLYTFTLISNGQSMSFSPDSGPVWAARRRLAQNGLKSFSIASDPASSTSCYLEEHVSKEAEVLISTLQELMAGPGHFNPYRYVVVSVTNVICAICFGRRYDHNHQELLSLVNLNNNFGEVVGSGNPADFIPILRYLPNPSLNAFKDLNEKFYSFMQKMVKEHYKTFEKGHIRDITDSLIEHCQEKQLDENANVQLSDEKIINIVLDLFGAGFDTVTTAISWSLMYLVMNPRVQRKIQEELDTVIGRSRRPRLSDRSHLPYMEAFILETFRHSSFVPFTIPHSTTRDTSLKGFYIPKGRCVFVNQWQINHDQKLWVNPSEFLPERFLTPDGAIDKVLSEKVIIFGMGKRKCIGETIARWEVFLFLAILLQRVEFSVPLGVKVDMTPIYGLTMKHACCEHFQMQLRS
Experiment: Inhibition of human CYP1A1 bound to yeast microsomal membrane using 7-ethoxyresorufin as substrate after 10 mins by fluorescence assay
Recorded IC50, one value per entry.

Answered examples (5):
Structure string | IC50
O=C(/C=C/c1ccc(Br)cc1)c1ccc[nH]1 | > 20 µM
COc1cc(/C=C/C(=O)c2ccc[nH]2)cc(OC)c1OC | > 20 µM
COc1cccc(/C=C/C(=O)c2ccc[nH]2)c1 | 6.2 µM
O=C(/C=C/C=C/c1ccccc1)c1ccc[nH]1 | > 20 µM
COc1ccc(/C=C/C=C/C(=O)c2ccc[nH]2)cc1 | > 20 µM

Next compound, IC50 to be filled in.
What value of IC50 has been reported for the following compound? CCc1ccc(/C=C/C(=O)c2ccc[nH]2)o1
> 20 µM

* * *

Molecular target: Cytochrome P450 1B1 (Homo sapiens, UniProt Q16678)
Sequence (Q16678 whole entry): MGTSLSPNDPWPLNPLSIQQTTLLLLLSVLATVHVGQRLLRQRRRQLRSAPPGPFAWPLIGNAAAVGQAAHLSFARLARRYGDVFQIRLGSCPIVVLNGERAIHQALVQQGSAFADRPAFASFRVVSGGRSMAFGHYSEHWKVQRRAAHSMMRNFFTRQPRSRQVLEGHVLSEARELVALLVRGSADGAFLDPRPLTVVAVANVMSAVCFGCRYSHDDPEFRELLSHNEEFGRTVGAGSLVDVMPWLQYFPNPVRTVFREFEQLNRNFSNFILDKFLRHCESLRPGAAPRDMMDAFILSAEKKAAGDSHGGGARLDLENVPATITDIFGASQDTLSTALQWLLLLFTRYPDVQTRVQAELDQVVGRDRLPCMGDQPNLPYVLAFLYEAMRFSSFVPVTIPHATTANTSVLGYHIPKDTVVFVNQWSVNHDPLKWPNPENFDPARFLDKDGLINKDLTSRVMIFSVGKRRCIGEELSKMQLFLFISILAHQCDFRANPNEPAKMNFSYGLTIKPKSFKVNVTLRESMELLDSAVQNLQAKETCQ
Test: Inhibition of human CYP1B1 bound to yeast microsomal membrane using 7-ethoxyresorufin as substrate after 10 mins by fluorescence assay
Readout: IC50

What value of IC50 has been reported for the following compound? COc1cc(/C=C/C(=O)c2ccc[nH]2)cc(OC)c1OC
> 20 µM

Repeat for the following compound: CCc1ccc(/C=C/C(=O)c2ccc[nH]2)o1
9.2 µM

Repeat for the following compound: O=C(/C=C/c1ccccc1Cl)c1ccc[nH]1
0.2 µM

Repeat for the following compound: O=C(O)c1ccc(/C=C/C(=O)c2ccc[nH]2)cc1
> 20 µM

Repeat for the following compound: COc1ccc(/C=C/C(=O)c2ccc[nH]2)cc1
> 20 µM

Repeat for the following compound: COc1ccc(/C=C/C=C/C(=O)c2ccc[nH]2)cc1
> 20 µM

Repeat for the following compound: COc1ccc(/C=C/C(=O)c2ccc[nH]2)cc1Br
> 20 µM

Repeat for the following compound: O=C(/C=C/c1ccc(Br)cc1)c1ccc[nH]1
8.5 µM

Repeat for the following compound: O=C(/C=C/c1cccc(Cl)c1)c1ccc[nH]1
1.5 µM

Repeat for the following compound: COc1cccc(OC)c1/C=C/C(=O)c1ccc[nH]1
> 20 µM

* * *

Biological target: Cytochrome P450 1A2 (Homo sapiens, UniProt P05177)
Sequence (P05177 whole entry): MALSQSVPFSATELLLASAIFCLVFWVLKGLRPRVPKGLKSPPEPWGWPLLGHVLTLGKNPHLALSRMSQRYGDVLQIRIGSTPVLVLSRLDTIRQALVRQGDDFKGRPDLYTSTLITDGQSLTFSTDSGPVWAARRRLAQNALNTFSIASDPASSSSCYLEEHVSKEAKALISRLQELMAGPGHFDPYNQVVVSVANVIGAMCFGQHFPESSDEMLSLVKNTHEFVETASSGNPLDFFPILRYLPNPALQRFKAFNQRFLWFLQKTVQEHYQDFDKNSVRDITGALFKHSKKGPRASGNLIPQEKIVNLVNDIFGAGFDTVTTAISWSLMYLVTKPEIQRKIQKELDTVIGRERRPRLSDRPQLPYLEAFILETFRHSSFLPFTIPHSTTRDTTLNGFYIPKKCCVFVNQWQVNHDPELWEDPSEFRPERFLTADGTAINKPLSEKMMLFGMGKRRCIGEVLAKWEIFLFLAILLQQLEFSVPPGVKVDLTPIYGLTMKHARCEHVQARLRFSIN
Assay: Inhibition of human CYP1A2 bound to yeast microsomal membrane using 3-cyano-7-ethoxycoumarin as substrate after 10 mins by fluorescence assay
Readout: pIC50
In simple prose, pIC50 is minus the logarithm base ten of a concentration in moles per litre.

What value of pIC50 has been reported for the following compound? COc1cc(/C=C/C(=O)c2ccc[nH]2)cc(OC)c1
5.05

Repeat for the following compound: O=C(/C=C/c1ccc(Br)cc1)c1ccc[nH]1
4.88

Repeat for the following compound: O=C(/C=C/c1ccc2c(c1)OCO2)c1ccc[nH]1
5.01

Repeat for the following compound: CN(C)c1ccc(/C=C/C(=O)c2ccc[nH]2)cc1
4.90

Repeat for the following compound: COc1cccc(/C=C/C(=O)c2ccc[nH]2)c1
5.82

Repeat for the following compound: COc1ccccc1/C=C/C(=O)c1ccc[nH]1
5.96

Repeat for the following compound: COc1cc(/C=C/C(=O)c2ccc[nH]2)cc(OC)c1OC
4.82

Repeat for the following compound: COc1ccc(/C=C/C(=O)c2ccc[nH]2)cc1
4.93

Repeat for the following compound: O=C(/C=C/c1cccc(Cl)c1)c1ccc[nH]1
4.92

Repeat for the following compound: CCc1ccc(/C=C/C(=O)c2ccc[nH]2)o1
5.60

Repeat for the following compound: COc1cccc(/C=C/C(=O)c2ccc[nH]2)c1OC
5.04

Repeat for the following compound: COc1ccc(/C=C/C=C/C(=O)c2ccc[nH]2)cc1
4.89

* * *

Biological target: Cytochrome P450 2D6 (Homo sapiens, UniProt P10635)
Sequence (P10635 whole entry): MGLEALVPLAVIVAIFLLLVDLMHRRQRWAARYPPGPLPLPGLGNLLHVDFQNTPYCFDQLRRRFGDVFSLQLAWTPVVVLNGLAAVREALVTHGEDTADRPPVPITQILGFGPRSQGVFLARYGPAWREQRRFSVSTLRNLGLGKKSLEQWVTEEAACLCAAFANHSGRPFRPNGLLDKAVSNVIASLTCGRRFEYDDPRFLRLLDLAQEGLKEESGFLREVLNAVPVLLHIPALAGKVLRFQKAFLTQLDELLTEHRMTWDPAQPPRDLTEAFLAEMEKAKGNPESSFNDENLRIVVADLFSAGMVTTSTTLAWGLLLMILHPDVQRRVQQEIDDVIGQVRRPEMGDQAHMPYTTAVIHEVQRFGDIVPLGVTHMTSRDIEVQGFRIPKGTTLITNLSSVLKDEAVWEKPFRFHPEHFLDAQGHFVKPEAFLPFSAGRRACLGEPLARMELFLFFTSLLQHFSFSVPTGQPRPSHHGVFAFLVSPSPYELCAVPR
Experiment: Inhibition of human CYP2D6 bound to yeast microsomal membrane using 7-ethoxy-methyloxy-3-cyanocoumarin as substrate after 10 mins by fluorescence assay
Type: ADME
Recorded IC50, one value per entry.
Record the value in µM, omitting the unit from your answer.

Lab note: need IC50 with Cytochrome P450 2D6 (Homo sapiens, UniProt P10635) for entry O=C(/C=C/c1ccc(Br)cc1)c1ccc[nH]1 , please look it up.
18

Repeat for the following compound: CN(C)c1ccc(/C=C/C(=O)c2ccc[nH]2)cc1
13

Repeat for the following compound: O=C(/C=C/c1cc([N+](=O)[O-])ccc1Cl)c1ccc[nH]1
12

Repeat for the following compound: O=C(/C=C/c1cccc(Cl)c1)c1ccc[nH]1
14

Repeat for the following compound: COc1ccc(/C=C/C(=O)c2ccc[nH]2)cc1
16

Repeat for the following compound: COc1cccc(/C=C/C(=O)c2ccc[nH]2)c1
11

* * *

Recorded IC50, one value per entry.
Target: Cytochrome P450 2D6 (Homo sapiens, UniProt P10635)
Assay: Inhibition of human CYP2D6 bound to yeast microsomal membrane using 7-ethoxy-methyloxy-3-cyanocoumarin as substrate after 10 mins by fluorescence assay
Type: ADME
Record the value in µM, omitting the unit from your answer.

Answered examples (4):
Structure string | Measurement units | IC50
O=C(/C=C/c1ccccc1Cl)c1ccc[nH]1 | µM | 12
COc1ccc(/C=C/C(=O)c2ccc[nH]2)cc1Br | µM | 13
CCc1ccc(/C=C/C(=O)c2ccc[nH]2)o1 | µM | 17
O=C(/C=C/c1c2ccccc2cc2ccccc12)c1ccc[nH]1 | µM | 12

What value of IC50 has been reported for the following compound? O=C(/C=C/c1ccc2c(c1)OCO2)c1ccc[nH]1
14

Repeat for the following compound: O=C(/C=C/c1ccc(OC(F)(F)F)cc1)c1ccc[nH]1
16
